# Test system: ORYSAT (Rice, Tebonnet)
# MEASUREMENT DESCRIPTION: Preemergence herbicidal evaluation
# Type: in vivo, Oryza sativa, (L.) Tebonnet
# CONDITION DESCRIPTION: Rate 0.2500 kg/ha; rated 4-5 weeks after treatment
MEASUREMENT TYPE: Preemergence herbicidal rating ORYSAT

molecule="C[C@@H]1C[C@H](C)OC(c2nsc3ccc(-n4c(=O)cc(C(F)(F)F)n(C)c4=O)cc23)O1 (stereo partly shown) [Compound 50]" observed_value=9.0
molecule=Cc1sccc1-c1nsc2ccc(-n3c(=O)cc(C(F)(F)F)n(C)c3=O)cc12 observed_value=5.0
molecule="C[C@@H]1C[C@H](C)OC(c2nsc3ccc(-n4c(=O)cc(C(F)(F)F)n(C)c4=O)cc23)O1 (stereo partly shown) [Compound 51]" observed_value=9.0
molecule="C[C@@H]1OC(c2nsc3ccc(-n4c(=O)cc(C(F)(F)F)n(C)c4=O)cc23)O[C@@H]1C (stereo partly shown)" observed_value=9.0

* * *

# Test system: ECHCG (Echinochloa crus-galli)
# MEASUREMENT DESCRIPTION: Postemergence herbicidal evaluation
# Assay type: in vivo, (L.) Beau
# CONDITION DESCRIPTION: rate 0.0320 kg/ha
MEASUREMENT TYPE: Postemergence herbicidal rating, ECHCG

molecule=Cc1nnc(-c2nsc3ccc(-n4c(=O)cc(C(F)(F)F)n(C)c4=O)cc23)s1 observed_value=0.0
molecule=CCOc1cc(OCC)nc(-c2nsc3ccc(-n4c(=O)cc(C(F)(F)F)n(C)c4=O)cc23)n1 observed_value=2.0
molecule="CCOC(=O)C1CS[C@H](c2nsc3ccc(-n4c(=O)cc(C(F)(F)F)n(C)c4=O)cc23)N1 (some centres unmarked)" observed_value=3.0
molecule=Cc1cc(C)c(-c2nsc3ccc(-n4c(=O)cc(C(F)(F)F)n(C)c4=O)cc23)s1 observed_value=4.0
molecule=CCc1cc(-c2nsc3ccc(-n4c(=O)cc(C(F)(F)F)n(C)c4=O)cc23)c(CC)s1 observed_value=2.0
molecule=Cc1ccc(-c2nsc3ccc(N4C(=O)C5=C(CCCC5)C4=O)cc23)s1 observed_value=1.0
molecule=Cn1c(C(F)(F)F)cc(=O)n(-c2ccc3snc(C4OCC(C)(C)CO4)c3c2)c1=O observed_value=1.0
molecule="CC1CCOC(c2nsc3ccc(-n4c(=O)cc(C(F)(F)F)n(C)c4=O)cc23)O1 (centres unmarked)" observed_value=4.0

* * *

In this section we review reported TRZAWR preemergence herbicidal rating values for a set of molecules.
# Tested on: TRZAWR (Wheat, Winter, cv Riband)
# MEASUREMENT DESCRIPTION: Preemergence herbicidal evaluation
# Assay type: in vivo, Triticum aestivum
# CONDITION DESCRIPTION: Rate 0.0620 kg/ha; preemergence; rated 4-5 weeks after treatment
MEASUREMENT TYPE: TRZAWR preemergence herbicidal rating

molecule="CC1CCOC(c2nsc3ccc(-n4c(=O)cc(C(F)(F)F)n(C)c4=O)cc23)O1 (stereo not drawn)" test_target="TRZAWR (Wheat, Winter, cv Riband)" observed_value=9.0
molecule="CC(=O)N1CCSC1c1nsc2ccc(-n3c(=O)cc(C(F)(F)F)n(C)c3=O)cc12 (stereo not drawn)" test_target="TRZAWR (Wheat, Winter, cv Riband)" observed_value=2.0
molecule=CN(C(=O)c1nsc2ccc(-n3c(=O)cc(C(F)(F)F)n(C)c3=O)cc12)c1ccc(Cl)cc1 test_target="TRZAWR (Wheat, Winter, cv Riband)" observed_value=0.0
molecule=Cn1c(C(F)(F)F)cc(=O)n(-c2ccc3snc(-c4cccs4)c3c2)c1=O test_target="TRZAWR (Wheat, Winter, cv Riband)" observed_value=4.0
molecule=Cn1ccnc1-c1nsc2ccc(-n3c(=O)cc(C(F)(F)F)n(C)c3=O)cc12 test_target="TRZAWR (Wheat, Winter, cv Riband)" observed_value=5.0
molecule=Cc1cc(C)c(-c2nsc3ccc(-n4c(=O)cc(C(F)(F)F)n(C)c4=O)cc23)s1 test_target="TRZAWR (Wheat, Winter, cv Riband)" observed_value=2.0
